Entries annotated with measured protein stability index
B1: RPS21 (parent)
chain: AEVSWEPGRREGCDICAGKAGCPI

# Variants of: B1
# assay: protein stability index of a GFP-peptide fusion (GPS, HEK-293T) (PSI 1-6); higher = more stable;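 further: lentivirally expressed fusions sorted by FACS into six bins by GFP to DsRed ratio, PSI derived from sequencing read proportions per bin multiplied by bin number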
# stated_conditions: c terminus: a fixed tail appended
recorded_endpoint: protein stability index

| monomer_sequence | recorded_endpoint | data_value |
| --- | --- | --- |
| ADVSWEPGRREGCDICAGKAGCPI | protein stability index | 3.79 |
| AEVSWEPGRREGCDICAIKAGCPI | protein stability index | 2.24 |
| AEVSWEPGRRENCDICAGKAGCPI | protein stability index | 3.07 |
| AEVSWEPGRYEGCDICAGKAGCPI | protein stability index | 4.13 |
| AEVSWEPGRREECDICAGKAGCPI | protein stability index | 3.86 |
| AEVSWEPGRREGCDICAGKAGCPA | protein stability index | 4.48 |
